# Tested on: male CD1 mice
# Experimental details: In vivo predictive sedation-hypnosis test (traveled distance)
# Setup conditions: Mus musculus, ip, 0.5 h, 98.0 μmol/kg intraperitoneal, traveled distance over 30 min versus control, read-out: % inhib motor activity
# Description: b) In Vivo Determination of Predictive Sedative-hypnotic Action The in vivo effects of these compounds were assessed by a predictive sedation-hypnosis test in mice (D. J. Sanger et al., Eur. J. Pharmacol., 313, 35-42, 1996; and G. Griebel et al., Psychopharmacology, 146, 205-213, 1999). Groups of 5-8 male CD1 mice, weighing 22-26 g at the time of test, were used. […] Compounds were suspended in 0.25% agar with one drop of Tween in a volume of 10 mL/kg. Control animals were given the vehicle alone. […]
Returns one of y or n; y when inhibition in vivo at 98 µmol/kg is >= 90%.

See these solved cases before continuing.
# Compound, Class
records = [
    ("COc1ccc2nc(-c3ccc(F)cc3)c(CC(=O)N3CCCCC3)n2n1 [Example 65]", "y"),
    ("Cc1ccc2nc(-c3ccc(Br)cc3)c(CC(=O)NN)n2n1 [Example 100]", "y"),
]

Q) Quick check, inhibition in vivo at 98 µmol/kg >= 90%? Cc1ccc(-c2nc3ccc(Cl)nn3c2CC(=O)N2CCCCC2)cc1 [Example 4]
A) y

Q) Next: Cc1ccc(-c2nc3ccc(Cl)nn3c2CC(=O)N2CCOCC2)cc1 [Example 5]
A) y

Q) Next: CCCCN(CCCC)C(=O)Cc1c(-c2ccc(Br)cc2)nc2ccc(OCC)nn12 [Example 11]
A) n

Q) Next: CCCN(CCC)C(=O)Cc1c(-c2ccc(Br)cc2)nc2ccc(C)nn12 [Example 17]
A) y

====

# Test system: male CD1 mice
# Experimental details: In vivo predictive sedation-hypnosis test (traveled distance)
# Setup conditions: Mus musculus, ip, 0.5 h, 98.0 μmol/kg intraperitoneal, traveled distance over 30 min versus control, read-out: % inhib motor activity
Collected inhibition in vivo at 98 µmol/kg values appear next to each entry.
Just so you know, I need the unit written after the number.

# Molecule, Tested on, inhibition in vivo at 98 µmol/kg
measured = [
    ("CCCCN(CCCC)C(=O)Cc1c(-c2ccc(Cl)cc2)nc2ccc(C)nn12", "male CD1 mice", "88%"),
]

Q) // inhibition in vivo at 98 µmol/kg lookup, key: Cc1ccc(-c2nc3ccc(C)cn3c2CC(=O)N(C)C)cc1 [zolpidem, reference compound]
A) 91.7%

Q) Next: Cc1ccc(NC(=O)Cc2c(-c3ccc(C)cc3)nc3ccc(C)nn23)cc1
A) 90.7%

Q) Next: CCOc1ccc2nc(-c3ccc(Br)cc3)c(CC(=O)N(CC)CC)n2n1
A) 92.1%

Q) Next: Cc1ccc(-c2nc3ccc(C)nn3c2CC(=O)Nc2ccccc2)cc1
A) 92.6%

Q) Next: CCOc1ccc2nc(-c3ccc(Cl)cc3)c(CC(=O)N(CC)CC)n2n1
A) 91.5%

Q) Next: CCCN(CCC)C(=O)Cc1c(-c2ccc(Cl)cc2)nc2ccc(OCC)nn12
A) 91.7%

Q) Next: CCCCN(CCCC)C(=O)Cc1c(-c2ccc(F)cc2)nc2ccc(OC)nn12
A) 91%

Q) Next: Cc1ccc(-c2nc3ccc(C)nn3c2CC(=O)Nc2nccs2)cc1
A) 88.9%
